Parameter TGI: see the listing below.
system: TK-10 renal; assay: NCI tumour cell line growth inhibition, 48 h
assay_metric: TGI (µM)

>>> assay_result("CO/N=C(\\COc1ccc2c(=O)c3ccccc3oc2c1)c1ccccc1")
38.1
>>> assay_result("COc1ccc(/C=C(/c2ccccc2)[N+](=O)[O-])c(OC)c1")
4.18
>>> assay_result("COc1ccc2c(c1)/C(=C\\c1ccncc1)C(=O)N2")
30.5
>>> assay_result("O=[N+]([O-])/C=C/c1c(Cl)cccc1Cl")
8.25

---

system: TK-10 renal; experiment: NCI tumour cell line growth inhibition, 48 h
TGI listing for selected molecules.
assay_metric: TGI

>>> assay_result("O[C@@H]1C=C[C@]23CCN(Cc4cc5c(cc42)OCO5)[C@@H]3C1")
"> 100 µM"
>>> assay_result("Cc1cn2c(/C=C3/C(=O)Nc4c3ccc3ccccc43)c(C(F)(F)F)nc2s1")
"> 100 µM"
>>> assay_result("O=C(CCN1CCCC1)Nc1ccc2c(NCc3ccccc3)c3ccccc3nc2c1")
"3.5 µM"
>>> assay_result("C=C(C)[C@@H]1CCC=C2CC[C@]3(C)[C@H](CC[C@@H]4[C@@]5(C)CCCNC(C)(C)[C@@H]5CC[C@]43C)[C@H]21")
"4.98 µM"
>>> assay_result("Nc1ccn(C2CC(F)C(CO)O2)c(=O)n1 (centres undefined)")
"> 100 µM"
>>> assay_result("COc1cc2cc(C(=O)N3CC(COS(C)(=O)=O)c4ccc(NC(=O)OCc5ccccc5)cc43)[nH]c2c(OC)c1OC (centres undefined)")
"> 100 µM"
>>> assay_result("COc1cc(/C=C2\\CC/C(=C\\c3cc(OC)c(O)c(OC)c3)C2=O)cc(OC)c1O")
"> 100 µM"
>>> assay_result("COc1ccccc1N=Nc1c(-c2ccccc2)nn(C(=O)CC(=O)Nc2cccc(C)c2)c1-c1ccccc1")
"> 100 µM"
>>> assay_result("Oc1c(C(Nc2ccccc2Br)c2ccccc2)ccc2cccnc12 (centres undefined)")
"46.3 µM"

---

tested on: DU-145 prostate; assay: NCI tumour cell line growth inhibition, 48 h
As shown below, each of these compounds has a reported TGI value.
assay_metric: TGI

>>> assay_result("Cc1c(CNc2ccc(C(=O)NC(CCCNC(=O)c3ccccc3C(=O)O)C(=O)O)cc2)cnc2nc(N)nc(N)c12 (stereo not given)")
"> 100 µM"
>>> assay_result("COc1ccc2c(c1)[n+](=O)c(C(=O)c1cccs1)c(C(F)(F)F)n2[O-]")
"12.7 µM"
>>> assay_result("CCCn1c2c(c3c(O)cccc31)C(=O)c1ccccc1-2")
"> 100 µM"
>>> assay_result("COC(=O)C1CC2(C)C=CC1N(C(=O)OCc1ccccc1)C2 (stereo not given)")
"> 100 µM"
>>> assay_result("CCOC(=O)c1ccc(Nc2nc3ccccc3nc2-c2cccs2)cc1")
"> 100 µM"
>>> assay_result("CN(C)c1ccc(Nc2c3ccccc3nc3ccccc23)cc1")
"2.94 µM"
>>> assay_result("c1ccc(-c2nn3c(c2-c2ccnc4cc(OCCN5CCOCC5)ccc24)CCC3)nc1")
"> 100 µM"
>>> assay_result("COc1ccc(-n2c(=O)c3[nH]c(=S)[nH]c3n(-c3ccc(OC)cc3)c2=S)cc1")
"> 100 µM"
>>> assay_result("CN(C)Cc1ccc(-c2cc3onc(-c4ccccc4)c3c(=O)n2C)cc1")
"85.3 µM"
>>> assay_result("CN1C(=O)c2ccc3ccccc3c2C1=O")
"> 100 µM"
>>> assay_result("C[C@H]1[C@H](C)N1CC(O)Cn1ccnc1[N+](=O)[O-] (stereo not given in full)")
"> 100 µM"
>>> assay_result("ClC(Cl)(Cl)C1CCOC1n1nnc2ccccc21 (stereo not given)")
"> 100 µM"
>>> assay_result("N#Cc1nc(-c2ccc(F)cc2)oc1S(=O)(=O)N1CCCCC1")
"3.24 µM"
>>> assay_result("COC(=O)[C@H](Cc1c[nH]c2ccccc12)NP(=O)(OCCC#N)OCC1OC(n2cc(C)c(=O)[nH]c2=O)CC1N=[N+]=[N-] (stereo not given in full)")
"> 100 µM"
>>> assay_result("Cc1ccc(S(=O)(=O)N2C[C@@H]3CC[C@]4(CO[Si](C)(C)C(C)(C)C)N[C@@H](c5ccccc5)[C@H]2[C@H]34)cc1")
"> 100 µM"

---

tested on: OVCAR-8 ovarian; assay: NCI tumour cell line growth inhibition, 48 h
assay_metric: TGI

>>> assay_result("C[C@H](c1ccc(Cl)cc1[N+](=O)[O-])N1C(=O)c2cc(I)ccc2N=C(OCCCN2CCN(C)CC2)[C@@H]1c1ccc(Cl)cc1")
"3.4 µM"
>>> assay_result("CC(C(=O)OCc1ccccc1)N(Cc1ccccc1)Cc1ccccc1 (stereo not given)")
"> 100 µM"
>>> assay_result("CC(C)N(C(=O)c1cccc(C(=O)N(C(C)C)C(C)C)c1)C(C)C")
"> 100 µM"
>>> assay_result("O=C(CCN1CCOCC1)/C(=C/c1ccccc1)c1ccccc1")
"4.1 µM"
>>> assay_result("C=CO/N=[N+](\\[O-])N(CC)CC")
"> 100 µM"
>>> assay_result("Cc1cn(C2CCC(CO)(CF)O2)c(=O)[nH]c1=O (stereo not given)")
"> 100 µM"
>>> assay_result("CCCn1c(SCCSc2c3ccccc3c(-c3nc(F)nc(F)n3)n2CCC)c2ccccc2c1-c1nc(F)nc(F)n1")
"> 100 µM"
>>> assay_result("Cc1cc(S(=O)(=O)Nc2nc3ncccc3[nH]2)c(S)cc1Cl")
"> 100 µM"
>>> assay_result("COC(=O)c1c2c(c(C)[n+]([O-])c1C)C(=O)C=C(NCc1ccccc1)C2=O")
"2.16 µM"
>>> assay_result("CC(C)(C)OC(=O)NC12C3C4C1C1C2C3C41NC(=O)OC(C)(C)C (stereo not given)")
"> 100 µM"

---

system: DMS 114 small cell lung; assay: NCI tumour cell line growth inhibition, 48 h
assay_metric: TGI (µM)

>>> assay_result("O=C(CCN1CCOCC1)/C(=C/c1ccccc1)c1ccccc1")
12
>>> assay_result("O=C1C2C(C(=O)N1c1ccccc1)C1c3ccccc3C2C2C(=O)N(c3ccccc3)C(=O)C21 (stereo not drawn)")
27
>>> assay_result("COc1ccccc1N=Nc1c(-c2ccccc2)nn(C(=O)CC(=O)Nc2cccc(C)c2)c1-c1ccccc1")
77.1
>>> assay_result("CCC[CH2][Sn]([CH2]CCC)([O]C(=O)c1cc(OC)c(OC)cc1OC)[O][Sn]([CH2]CCC)([CH2]CCC)[O]C(=O)c1cc(OC)c(OC)cc1OC")
1.26

---

tested on: NCI-H460 lung; assay: NCI tumour cell line growth inhibition, 48 h
A collection of compounds and their measured TGI
assay_metric: TGI

>>> assay_result("COC(C/C(=C/CO[Si](C(C)C)(C(C)C)C(C)C)C(=O)N(COCC[Si](C)(C)C)c1ccccc1I)OC")
"> 100 µM"
>>> assay_result("COc1ccc(-c2cc(=O)n(-c3nc4ccccc4[nH]3)[nH]2)cc1OC")
"68.3 µM"
>>> assay_result("Cc1cc(N(CCC#N)S(=O)(=O)c2ccccc2)ccc1/C=C1\\N=C(c2ccc(Cl)cc2)OC1=O")
"> 100 µM"
>>> assay_result("Cc1ccc(/C=C/c2c(C(=O)/C=C/c3ccccc3)c(C)nc3ccccc23)cc1")
"2.99 µM"
>>> assay_result("N#Cc1nc(-c2ccc(F)cc2)oc1S(=O)(=O)N1CCCCC1")
"19.6 µM"
>>> assay_result("CCCCCCCCCCCC1=NC(C)(C)CN1C(C)(C)CO")
"2.91 µM"
>>> assay_result("C/C=C(\\C)C(=O)OC1CC(OC(C)=O)C2(C(=O)OC)COC3C2C1(C)C1C2(C(=O)OC)OCC1(C3O)C1(O)C3CC(C4(O)C=COC4O3)C1(C)O2 (stereo not given)")
"> 100 µM"
>>> assay_result("CSC(=S)Nc1cc(C)cc(C)n1")
"> 31.6 µM"
>>> assay_result("CN(C)Cc1ccc(-c2cc3onc(-c4ccccc4)c3c(=O)n2C)cc1")
"32.3 µM"
>>> assay_result("N#C/C(=C1\\SCC(=O)N1c1ccccc1)c1nc2ccccc2[nH]1")
"> 100 µM"

---

tested on: M19-MEL melanoma; assay: NCI tumour cell line growth inhibition, 48 h
Overview of recorded TGI for various molecules
assay_metric: TGI

>>> assay_result("O=C(O)CCC(=O)OCN1C(=O)C2C3C=CC(C2C1=O)C1C2C(=O)N(COC(=O)CCC(=O)O)C(=O)C2C31 (stereo not given)")
"> 100 µM"
>>> assay_result("CC(C)/C=C1\\CCC(CN2CCOCC2)C1=O (stereo not given)")
"> 57.2 µM"
>>> assay_result("CCOC(=O)N1C/C(=C\\c2ccccc2)C(=O)/C(=C/c2ccccc2)C1")
"3.22 µM"
>>> assay_result("C/C(CC(=O)NCCc1ccccc1)=N\\NS(=O)(=O)c1ccc(C)cc1")
"> 100 µM"
>>> assay_result("Cc1cc2c(c(C(N)=O)c1C)-c1cccc(F)c1C2=O")
"> 100 µM"
>>> assay_result("NC(CCCC(N)P(=O)(O)O)C(=O)O (stereo not given)")
"> 100 µM"
>>> assay_result("O=C(/C=C(\\O)C(=O)O)/C=C(\\O)c1ccccc1")
"> 100 µM"
>>> assay_result("COC(=O)CCC(NC(=S)N/N=C(\\C)c1ccc[nH]1)C(=O)OC (stereo not given)")
"> 100 µM"
>>> assay_result("COc1cc(CNc2nc3c(N)cc(C(F)(F)F)cc3nc2-c2ccccc2)cc(OC)c1OC")
"> 100 µM"
>>> assay_result("C[N+]1=c2c3cccc4cccc(c(=O)n2CC1)c43")
"31.6 µM"

Taken from PubChem BioAssay (NCI).
